Where do the numbers come from? From patent US20170008928A1.

- tgt: human cholecystokinin-2 receptor (CCK-2R) (Homo sapiens, UniProt P32239)
- Construct: host or cells: 1321-N1 cells (plasma membranes prepared by Evotec AG Hamburg)
- Sequence (P32239 whole entry): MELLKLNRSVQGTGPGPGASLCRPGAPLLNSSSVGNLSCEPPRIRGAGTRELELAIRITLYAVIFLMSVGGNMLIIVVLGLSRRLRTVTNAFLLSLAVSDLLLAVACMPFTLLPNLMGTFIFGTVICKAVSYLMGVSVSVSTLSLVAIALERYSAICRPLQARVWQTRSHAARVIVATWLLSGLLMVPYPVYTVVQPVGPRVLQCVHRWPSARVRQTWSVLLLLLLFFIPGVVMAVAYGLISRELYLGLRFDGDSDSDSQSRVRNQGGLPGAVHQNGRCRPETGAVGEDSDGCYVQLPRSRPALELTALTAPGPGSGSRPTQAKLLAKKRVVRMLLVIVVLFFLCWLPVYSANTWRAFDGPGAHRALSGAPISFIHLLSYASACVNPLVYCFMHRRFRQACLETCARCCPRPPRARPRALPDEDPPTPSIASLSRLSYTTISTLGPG
- protocol.summary: In vitro receptor binding to CCK-2R, SPA displacement of [125I]-CCK-8s from plasma membranes
- details: displacement of [125I]-CCK-8s, plasma membranes of 1321-N1 cells expressing CCK-2R; highest dose tested 1×10^7 pM; read-out: IC50 (CCK-2R)
Starred links: 1 amine or outer side, 2 acyl side, 3 side chain; linkers in the order of their positions; H or OH if unused. Non-standard residues stand in square brackets, D forms with d. Residues, ends and D or L forms follow the SMILES beside them. *: point of attachment. C20 diacid = O=C(O)CCCCCCCCCCCCCCCCCCC(=O)*; sY = N[C@@H](Cc1ccc(OS(=O)(=O)O)cc1)C(=O)O; γGlu = O=C(O)[C@H](CCC(=O)[*:2])N[*:1]; NMeF = CN[C@@H](Cc1ccccc1)C(=O)O; dNMeD = CN[C@H](CC(=O)O)C(=O)O; Nle = CCCC[C@H](N)C(=O)O; AEEA = NCCOCCOCC(=O)O
endpoint: IC50

INSERT INTO results (compound, endpoint, reported_value) VALUES
  ('CCCC[C@H](NC(=O)[C@H](Cc1c[nH]c2ccccc12)NC(=O)CNC(=O)[C@H](CCCCN)NC(=O)[C@H](Cc1ccc(OS(=O)(=O)O)cc1)NC(=O)[C@@H](N)CC(=O)O)C(=O)N(C)[C@H](CC(=O)O)C(=O)N(C)[C@@H](Cc1ccccc1)C(N)=O [Example 67] (H-D[sY]KGW[Nle][dNMeD][NMeF]-NH2)', 'IC50', '> 10 µM');

Next item in the queue.
Measured IC50, CCCC[C@H](NC(=O)[C@H](Cc1c[nH]c2ccccc12)NC(=O)CNC(=O)[C@H](CC(C)C)NC(=O)[C@H](Cc1ccc(OS(=O)(=O)O)cc1)NC(=O)[C@H](CCC(=O)O)NC(=O)COCCOCCNC(=O)COCCOCCNC(=O)CC[C@H](NC(=O)CCCCCCCCCCCCCCCCCCC(=O)O)C(=O)O)C(=O)N(C)[C@H](CC(=O)O)C(=O)N(C)[C@@H](Cc1ccccc1)C(N)=O [Example 37] ({C20 diacid-γGlu-AEEA-AEEA}-E[sY]LGW[Nle][dNMeD][NMeF]-NH2) : 0.43 µM
